experiment: small-molecule binders of probe aInhba, primary screen, biochemical, small-molecule microarray, 635/667 nm fluorescence (AID 1148); settings: higher = more signal;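 also: score merges 667nm spot fluorescence with signal-to-noise for antibody binding to printed compounds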
Threshold rule: composite z-score greater than or equal to -0.1 is class 1; below that, class 0.

Past entries and their recorded results:
[
  {
    "CHEMICAL_STRING": "C[C@H]1CC[C@H]2C(=O)O[C@H](COc3ccc(C(C)(C)C)cc3)CN2[C@@H]1c1ccc(Br)cc1",
    "CLASS_ASSIGNMENT": "class 1"
  },
  {
    "CHEMICAL_STRING": "COC(=O)C1=C(C)N(Cc2ccccc2)[C@]23O[C@](C(=O)OC)(C(=O)N2[C@@H]1c1ccccc1)C(C(=O)OC)=C3C(=O)OC",
    "CLASS_ASSIGNMENT": "class 1"
  },
  {
    "CHEMICAL_STRING": "COC(=O)[C@@H]1CC[C@H](C)[C@@H](c2ccc(C)cc2)N1C(=O)c1ccc(C=NO[C@H](C)c2cn([C@@H]3COC[C@H]3O)nn2)cc1",
    "CLASS_ASSIGNMENT": "class 1"
  }
]

Determine whether measured composite z-score meets or exceeds -0.1 for `CC(C)=CCCC(C)=CCON=C1C[C@@H](O)[C@@H](O)[C@@H]2[C@@H]3C(=O)N(C[C@@H]4CCCO4)C(=O)[C@@H]3CC[C@H]12`
class 0

Determine whether measured composite z-score meets or exceeds -0.1 for `COc1ccc(O[C@H]2C=C[C@@H](c3ccccc3)O[C@@H]2CON=C2[C@H]3CCn4c(=O)n(-c5ccccc5)c(=O)n4[C@H]3[C@H](O)[C@@H]3O[C@H]23)cc1`
class 0

Determine whether measured composite z-score meets or exceeds -0.1 for `C#CCCCON=C1C[C@@H](O)[C@@H](O)[C@@H]2[C@@H]3C(=O)N(c4cccc(Oc5ccccc5)c4)C(=O)[C@@H]3CC[C@H]12`
class 0

Determine whether measured composite z-score meets or exceeds -0.1 for `CC(C)(C)N1C(=O)[C@H]2[C@H]3[C@H](O)[C@H](O)CC(=NO[C@@H]4O[C@H](CO)[C@@H](O)[C@H](O)[C@H]4O)[C@H]3CC[C@H]2C1=O`
class 1

Determine whether measured composite z-score meets or exceeds -0.1 for `C[C@@H](c1ccccc1)N1C(=O)[C@H]2[C@H]3[C@H](O)[C@H](O)CC(=NO[C@@H]4O[C@H](CO)[C@@H](O)[C@H](O)[C@H]4O)[C@@H]3CC[C@H]2C1=O`
class 1

Determine whether measured composite z-score meets or exceeds -0.1 for `COC(=O)CC=C[C@@H](C)[C@@H](C=NO[C@@H]1O[C@H](COC(C)=O)[C@@H](OC(C)=O)[C@H](OC(C)=O)[C@H]1OC(C)=O)OC`
class 0

Determine whether measured composite z-score meets or exceeds -0.1 for `CO[C@@H]1COC(=O)CC=C[C@H](C)[C@H](OC)COC(=O)[C@H](C)NC(=O)CC=C[C@H]1C`
class 0

Determine whether measured composite z-score meets or exceeds -0.1 for `CC(C)(C)N1C(=O)[C@H]2[C@H]3[C@H](O)[C@H](O)CC(=O)[C@@H]3CC[C@H]2C1=O`
class 0

Determine whether measured composite z-score meets or exceeds -0.1 for `CC(C)CON=C1[C@H]2CCn3c(=O)n(Cc4cc5c(cc4Cl)OCO5)c(=O)n3[C@H]2[C@H](O)[C@@H]2O[C@H]12`
class 1

###

The following compounds are listed with their measured composite z-score values.
experiment: binders of probe aFGF2 on microarray, primary screen, stem cell growth factor project, biochemical, small-molecule microarray, fluorescence 635/667 (AID 1067); conditions: higher = more signal;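 also: measures binding of biotinylated aFGF2 protein to printed compounds on slides; z-score merges feature fluorescence and signal-to-noise across triplicate slides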
Just the number.

Record excerpt, results attached:
[
  {
    "COMPOUND": "COC(=O)CC=C[C@@H](C)[C@@H](C=NO[C@@H](C)c1cn([C@H](CO)Cc2ccccc2)nn1)NS(=O)(=O)c1ccc(C)cc1",
    "QUANTITY_MEASURED": "composite z-score",
    "RECORDED_VALUE": -0.161
  },
  {
    "COMPOUND": "CCOC(=O)[C@H](Cc1ccccc1)NC(=O)CCC1CC(OC(=O)NCc2cccc3ccccc23)CC2(CCCC(COC(=O)NCC(c3ccccc3)c3ccccc3)O2)O1 (some centres not stated)",
    "QUANTITY_MEASURED": "composite z-score",
    "RECORDED_VALUE": -0.0753
  },
  {
    "COMPOUND": "COc1ccc(O[C@H]2C=C[C@@H](c3ccccc3)O[C@@H]2CON=C(C)CCN2CCc3nc(-c4ccccc4)c(-c4ccccc4)cc3C2)cc1",
    "QUANTITY_MEASURED": "composite z-score",
    "RECORDED_VALUE": -0.0909
  },
  {
    "COMPOUND": "CCOC(=O)[C@H](CC(C)C)NC(=O)CCC1CC(OC(=O)NCCc2ccc(F)cc2)CC2(CCCC(COC(=O)NCC(c3ccccc3)c3ccccc3)O2)O1 (some centres not stated)",
    "QUANTITY_MEASURED": "composite z-score",
    "RECORDED_VALUE": -0.136
  },
  {
    "COMPOUND": "CSCC[C@@H]1NC(=O)CC=C[C@@H](C)COC(=O)[C@@H](C)COC1=O",
    "QUANTITY_MEASURED": "composite z-score",
    "RECORDED_VALUE": -0.144
  },
  {
    "COMPOUND": "CC(C)=NOC[C@@H](C)[C@H](OCc1ccccc1)C(C)C",
    "QUANTITY_MEASURED": "composite z-score",
    "RECORDED_VALUE": -0.147
  }
]

In the following, a different compound is considered.
Input `CCN1C(=O)[C@H]2[C@H]3[C@H](O)[C@H](O)CC(=NNC(=O)OCc4ccc(OC)cc4)[C@@H]3CC[C@H]2C1=O` . Output composite z-score: -0.0235

###

biological target: Focal adhesion kinase 1 (Homo sapiens) (UniProt Q05397); assay: small-molecule microarray binders of FAK, primary screen, biochemical, 635/667 nm fluorescence, BSA, DTT (AID 1130); settings: PTK2 binding, 635 nm fluorescence, higher = more signal;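 also: composite of spot emission at 667 nm and signal to noise over triplicate slides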
Sequence (Q05397 whole entry, looked up): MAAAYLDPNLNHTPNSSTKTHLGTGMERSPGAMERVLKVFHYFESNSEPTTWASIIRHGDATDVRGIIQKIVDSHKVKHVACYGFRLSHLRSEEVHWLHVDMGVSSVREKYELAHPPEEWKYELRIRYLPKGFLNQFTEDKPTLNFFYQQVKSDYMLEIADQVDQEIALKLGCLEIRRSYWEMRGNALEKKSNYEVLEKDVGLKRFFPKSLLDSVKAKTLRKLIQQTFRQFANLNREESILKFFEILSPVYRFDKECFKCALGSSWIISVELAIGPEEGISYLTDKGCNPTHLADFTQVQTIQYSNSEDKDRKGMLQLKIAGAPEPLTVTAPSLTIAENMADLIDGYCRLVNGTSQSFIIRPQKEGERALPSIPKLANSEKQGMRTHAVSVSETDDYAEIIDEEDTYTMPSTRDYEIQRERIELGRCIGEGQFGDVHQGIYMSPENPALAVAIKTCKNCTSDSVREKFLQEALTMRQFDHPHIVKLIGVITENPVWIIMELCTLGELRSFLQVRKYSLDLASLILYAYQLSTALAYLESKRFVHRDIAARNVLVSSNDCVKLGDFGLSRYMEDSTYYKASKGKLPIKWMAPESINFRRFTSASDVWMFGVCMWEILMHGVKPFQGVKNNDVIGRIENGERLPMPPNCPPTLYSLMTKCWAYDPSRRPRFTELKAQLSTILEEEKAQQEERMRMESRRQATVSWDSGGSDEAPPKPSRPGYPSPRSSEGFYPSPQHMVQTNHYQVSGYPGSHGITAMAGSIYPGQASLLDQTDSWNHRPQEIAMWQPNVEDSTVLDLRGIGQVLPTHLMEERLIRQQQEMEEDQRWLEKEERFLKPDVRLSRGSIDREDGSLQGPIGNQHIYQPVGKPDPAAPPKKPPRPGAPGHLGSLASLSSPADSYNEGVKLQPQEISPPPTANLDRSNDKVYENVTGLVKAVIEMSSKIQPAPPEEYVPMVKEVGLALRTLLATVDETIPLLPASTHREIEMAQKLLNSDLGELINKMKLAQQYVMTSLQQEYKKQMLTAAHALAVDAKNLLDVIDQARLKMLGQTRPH
Entries are sorted into classes by composite z-score as follows: L = under -0.2, M = from -0.2 up to -0.01, H = -0.01 and over

Past entries and their recorded results:
[
  {
    "COMPOUND": "O=C1CCCC=C1C(O)CCCCBr (stereo not given)",
    "CLASS_ASSIGNMENT": "M"
  },
  {
    "COMPOUND": "CCc1cc2c(nc1CC)CCN(CCC(C)=NO[C@H](C)c1cn([C@@H]3COC[C@H]3O)nn1)C2",
    "CLASS_ASSIGNMENT": "M"
  },
  {
    "COMPOUND": "COC(=O)[C@H]1[C@@H](O)[C@@]2(O)c3ccccc3O[C@@]2(c2ccccc2)[C@@H]1c1ccccc1",
    "CLASS_ASSIGNMENT": "L"
  }
]

In the following, a different compound is considered.
Category of `CC(C)=CCCC(C)=CCON=C1C[C@@H](O)[C@@H](O)[C@@H]2[C@@H]3C(=O)N(C(C)(C)C)C(=O)[C@@H]3CC[C@@H]12` , please.
H

###

assay: CREB reporter modulators under forskolin, primary screen, cell-based, PC12, CRE-LacZ reporter, forskolin-stimulated (AID 1146); details: luminescence, 4.5 h, higher = more signal, called active from +8 up or from −8 down;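 also: PC12 cells with 6xCRE LacZ reporter stimulated by forskolin 10 µM; beta-galactosidase reporter signal reflecting CREB driven transcription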
The following molecules are listed with their measured z-score values.
Just the number.

[
  {
    "MOLECULE": "COC(=O)C=CCCc1coc(C=CCNC(=O)OC)n1",
    "z-score": 0.702
  },
  {
    "MOLECULE": "CCc1cc2c(nc1CC)CCN(CCC(C)=NO[C@@H](C)c1cn([C@H](CO)Cc3ccccc3)nn1)C2",
    "z-score": -1.03
  },
  {
    "MOLECULE": "Cc1ccc(S(=O)(=O)N[C@@H]2COC(=O)[C@@H](C)COC(=O)CC=C[C@H]2C)cc1",
    "z-score": -0.549
  },
  {
    "MOLECULE": "CON=CC[C@@H]1C=C[C@H](OC(C)=O)[C@@H](COC(C)=O)O1",
    "z-score": 0.46
  },
  {
    "MOLECULE": "CCOC(=O)[C@H](CC(C)C)NC(=O)CCC1CC(OC(=O)NCc2cccc3ccccc23)CC2(CCCC(COC(=O)NCc3cccc(C(F)(F)F)c3)O2)O1 (stereo partly drawn)",
    "z-score": -0.274
  }
]

Input `CC(C)CON=C1C[C@@H](O)[C@@H](O)[C@@H]2[C@@H]3C(=O)N(c4cccc(Oc5ccccc5)c4)C(=O)[C@@H]3CC[C@@H]12` . Output z-score: 0.0421

Input `CO[C@@H]1COC(=O)CC=C[C@@H](C)[C@@H]2C=C[C@H](O)[C@@H](COC(=O)CC=C[C@H]1C)O2` . Output z-score: -0.0355

Input `CO[C@H]1COC(=O)CCC[C@@H](C)[C@H](OC)COC(=O)[C@@H]2CCCN2C(=O)CC=C[C@@H]1C` . Output z-score: -0.0072

Input `O=C1C[C@@H](O)[C@@H](O)[C@@H]2[C@@H]3C(=O)N(Cc4ccc5c(c4)OCO5)C(=O)[C@@H]3CC[C@H]12` . Output z-score: 0.244

Input `O=c1n(-c2ccccc2)c(=O)n2n1CC[C@@H]1C(=NOCc3ccccc3)[C@H]3O[C@H]3[C@@H](O)[C@@H]12` . Output z-score: -0.314

Input `CC(CCN1CCCCc2nc(C)c(C)cc21)=NOC[C@@H](C)[C@H](OCc1ccccc1)C(C)C` . Output z-score: 0.264

Input `O=C(NN=C1C[C@@H](O)[C@@H](O)[C@@H]2[C@@H]3C(=O)N(Cc4ccccc4)C(=O)[C@@H]3CC[C@@H]12)OCc1ccccc1` . Output z-score: 0.121

Input COC(=O)[C@H](C)NC(=O)CCC1CC(OC(=O)NCc2ccc3c(c2)OCO3)CC2(CCCC(COC(=O)NCC3CCCCC3)O2)O1 (stereo partly drawn) . Output z-score: 1.35
